# Test system: EV-A71
# test-description: High-content image assay, EV-A71 infection of RD cells
# Format: cell-based, enterovirus EV-A71 (EV-71)
# cond: Enterovirus A, EV71 / EVA71, RD, 10 MOI EV-71, read-out: EC50 against EV-A71 infection in RD cells
# Source text: After viral infection, the cells are fixed.
pEC50: −log10 of the molar value.
endpoint-label: pEC50

Memo: COc1cc2c3cc1Oc1c(OC)c(OC)cc4c1[C@@H](Cc1ccc(O)c(c1)Oc1ccc(cc1)C[C@@H]3N(C)CC2)N(C)CC4 , reported pEC50: ~4.77

----------
# Test system: SARS-CoV-2
# test-description: SARS-CoV-2 infection of Vero-E6 cells, virus titration assay
# Assay type: cell-based
# cond: Severe acute respiratory syndrome coronavirus 2, Vero C1008, read-out: EC50, SARS-CoV-2 viral yield by virus titration assay
endpoint-label: EC50

Lab book: EC50 of COc1cc2c3cc1Oc1c(OC)c(OC)cc4c1[C@@H](Cc1ccc(O)c(c1)Oc1ccc(cc1)C[C@@H]3N(C)CC2)N(C)CC4 [berbamine] noted as ~4.7 µM

----------
# System: JEV
# test-description: High-content image assay (DsRNA immunostaining), JEV infection of A549 cells
# cond: human
endpoint-label: selectivity ratio
Lab note: jot down the number only; don't add units.

# compound COc1cc2c3cc1Oc1c(OC)c(OC)cc4c1[C@@H](Cc1ccc(O)c(c1)Oc1ccc(cc1)C[C@@H]3N(C)CC2)N(C)CC4 ; its selectivity ratio = 78.2

----------
# test-description: Cytotoxicity in Hela cells
# cond: human
endpoint-label: CC50 (µM)
Supply the numeric figure in µM, leaving out any unit text.

What the record says about COc1cc2c3cc1Oc1c(OC)c(OC)cc4c1[C@@H](Cc1ccc(O)c(c1)Oc1ccc(cc1)C[C@@H]3N(C)CC2)N(C)CC4 [berbamine] : CC50 is 115

----------
# test-description: Cytotoxicity in Vero cells
# cond: African green monkey
endpoint-label: CC50 (µM)
Dear colleague, please return just the value in µM, with no unit written.

Given item COc1cc2c3cc1Oc1c(OC)c(OC)cc4c1[C@@H](Cc1ccc(O)c(c1)Oc1ccc(cc1)C[C@@H]3N(C)CC2)N(C)CC4 [berbamine] , the value recorded as its CC50 is 115

----------
# Tested on: ZIKV
# test-description: High-content image assay (DsRNA immunostaining), ZIKV infection of A549 cells
# cond: human
endpoint-label: selectivity ratio
Reply briefly: the number, and no unit.

Reported selectivity ratio for COc1cc2c3cc1Oc1c(OC)c(OC)cc4c1[C@@H](Cc1ccc(O)c(c1)Oc1ccc(cc1)C[C@@H]3N(C)CC2)N(C)CC4 [berbamine] was 58.4

----------
# test-description: Cytotoxicity in Huh7 cells
# cond: human
endpoint-label: CC50 (µM)
Give the value in µM but do not write µM after it.

Record COc1cc2c3cc1Oc1c(OC)c(OC)cc4c1[C@@H](Cc1ccc(O)c(c1)Oc1ccc(cc1)C[C@@H]3N(C)CC2)N(C)CC4 , field CC50: 90.4

----------
# System: SARS-CoV-2
# test-description: in vitro
# cond: African green monkey
endpoint-label: selectivity ratio
# respond with the number and nothing more

Result for COc1cc2c3cc1Oc1c(OC)c(OC)cc4c1[C@@H](Cc1ccc(O)c(c1)Oc1ccc(cc1)C[C@@H]3N(C)CC2)N(C)CC4 , tested on SARS-CoV-2, selectivity ratio: 48.9

----------
# Tested on: EV-A71
# test-description: High-content image assay, EV-A71 infection of RD cells
# Type: cell-based, enterovirus EV-A71 (EV-71)
# cond: 10 MOI EV-71, read-out: EC50 against EV-A71 infection in RD cells
endpoint-label: EC50

Short answer for COc1cc2c3cc1Oc1c(OC)c(OC)cc4c1[C@@H](Cc1ccc(O)c(c1)Oc1ccc(cc1)C[C@@H]3N(C)CC2)N(C)CC4 [berbamine] : EC50 was ~17.3 µM

----------
# test-description: Cytotoxicity in A549 cells
# cond: human
endpoint-label: CC50 (µM)
Report the value in µM with no unit label.

Entry COc1cc2c3cc1Oc1c(OC)c(OC)cc4c1[C@@H](Cc1ccc(O)c(c1)Oc1ccc(cc1)C[C@@H]3N(C)CC2)N(C)CC4 — recorded CC50 = 127

Data provenance: patent US12102634B2
